Test system: K4 kissing-loop RNA reporter
Test: apparent KD of K4 kissing-loop reporter; higher = weaker reporter binding
Conditions: Eterna round: R107; input ligand: tryptophan 2.4 mM
Assign 1 whenever apparent KD of K4 kissing-loop reporter does not fall below 0.3 µM; assign 0 whenever it does.

Query Sequence: UAUUUAGUGACGGCCGCCACUAUUGUGAUUUAAUUGUUUGAGUGAUGUUUUGAUGUUUGAUUUUGUAGGACCGGGUUAUGUGUUA [tyttmullin]
Assigned Label: 1

Query Sequence: AGCUGCCGAAUAGAUACCAGUGUCUUUAGUGAUGUUUCAGAGCUGGCACGAUCAGAAGGUCACCCUUGGCAGCUAGUGCCAGCGU [theeternabot_exclusion_KL_Theo_B_39]
Assigned Label: 0

Query Sequence: AUAGGCUAGCGAAACGCUAGCCUAACAGAUACCAGUCGCGAAAGCGACCCUUGGCAGCUGCUGAGUGAUGUUCAGGUGAAUGAAU
Assigned Label: 1

Query Sequence: CCUAUCUCAUACGAUACCAGUCAAUGAUCUUUGAUCAAUGCCAUCACCGAGUGAUGUUCGGACCCUUGGCAGCGUAUGGGAUAGG [whbob_Ex_Theo_B_sa102]
Assigned Label: 0

Query Sequence: AUGCAUGAAAGUGAUGUUUUCAGUAAUGGAAAGGAUAUGCGCUGGUGCAGAAGGUUCUAAAGUGCAUCCAACAACUGGGUAGGCC [theeternabot_sameState_KL_FMN_A_36]
Assigned Label: 1

Query Sequence: UGAUAGGACAGAAGGAGCGGAAUCCUGUCAAAGACAGGAAAAUAAAUAAAAGGAGUGAUGUUCCAGGUAGGUCGCUGUCCUAUCU [ArgBX 19 #SwitchBubble #StaticStem]
Assigned Label: 0

---

System: MS2 coat protein
Assay: apparent KD of MS2 coat protein; designed switch direction (-1 OFF switch, 1 ON switch): 1; higher = weaker reporter binding
Conditions: input ligand: none
Each entry below carries its recorded apparent KD of MS2 coat protein.

Query Sequence: GGAGCCAAGGCAGGAUAUUCAUAUUAAAUGACAUGAGGAUCACCCAUGUUGGCCAGAAGGCCAUGGGAGAAGGGCCAUGGCUCG [Xeonanis - 13 mod23] (Eterna round: R96, puzzle: Same State NG 2)
apparent KD of MS2 coat protein / nM: 166

Query Sequence: ACAUUUAGCUCGUGCACAUGAGGAUCACCCAUGUUCAGUUCACAGGAUAUCUAGUCAAACGGAUCGGAGAAGGGUGGCAGGAGC [Quceon] (Eterna round: R96, puzzle: Same State NG 3)
apparent KD of MS2 coat protein / nM: 123

Query Sequence: UAUCCAUAGAUAGGAUAUUAGAGAACAUGAGGAUCACCCAUGUUUGGCUUGGUUUUAAGCCAAUCUAAGAAGGAUCUUGAUGAA [SameState NG2 #10] (Eterna round: R96, puzzle: Same State NG 2)
apparent KD of MS2 coat protein / nM: 72.1

Query Sequence: UUGAAGAAUUAAGGAUAUUGAGUACAUAUGUUUAACAUGAGGAUCACCCAUGUGGGUUGCGGUAUCGAGAAGGUAAAUUAAUAG [Mat - same State NG 2 - JL mod - D66] (Eterna round: R96, puzzle: Same State NG 2)
apparent KD of MS2 coat protein / nM: 157

Query Sequence: GCGGAGAGGUAAGGAUAUCCAUGGAAGACACAUGAGGAUCACCCAUGUGGGAGGGAAACCAGGAGGGAGAAGGUACCGGGACGC [AK SSNG2-V2-21] (Eterna round: R96, puzzle: Same State NG 2)
apparent KD of MS2 coat protein / nM: 13.2

Query Sequence: AGCUAGUACCGAGGAUAUACGUACAUGAGGAUCACCCAUGUAUACAUGGUUUAAUGAAACUACAUGUAGAAGGCGGUACUAGCA [Mat - Same State NG 2 - JL mod - D51] (Eterna round: R96, puzzle: Same State NG 2)
apparent KD of MS2 coat protein / nM: 348

Query Sequence: AAAGGAUGAUGUUACAUGAGGAUCACCCAUGUAGUGAUAACUAAGGAUAUCUGUUAAACAAGUUAAGAGAAGGUAGGAUCAUUA [AK SSNG3-V2-8] (Eterna round: R96, puzzle: Same State NG 3)
apparent KD of MS2 coat protein / nM: 60.8

Query Sequence: GGUAGGUUACUACCAACACAUGAGGAUCACCCAUGUUUUGGGAAGGAUAUGGUACCUAUUUGGUACCAGAAGGUCCAGUUAAUG [salish99_SSNG3_r04_701] (Eterna round: R96, puzzle: Same State NG 3)
apparent KD of MS2 coat protein / nM: 122

---

Tested on: K4 kissing-loop RNA reporter;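 also: bound reporter read as fluorescence of individual clusters on recovered sequencing chips by microscopy, with normalized cluster intensities fitted with a binding model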
Assay: apparent KD of K4 kissing-loop reporter; higher = weaker reporter binding
Details: Eterna round: R107; input ligand: none
Measurement Name: apparent KD of K4 kissing-loop reporter (nM)

Query Sequence: UACUUAUUUUUUAACUUAAAUUUUUCAGAAGGAGCGUGAUCAUUCACAGGUAGGUCGCUGAACUAGUGAUGUUAGUUUUAAUUUU [JR_Nu_ExcArginiA_Sub024]
Data Value: 63.9
--
Query Sequence: AAACAUUGGUCGGAUACCAGUUAGACCGAUAGGUCAAAACUGGAGUGAUGUUCCUAAAAUAACCCUUGGCAGCCGACCGAUGAAA [MAT - Same State Theophlline B - Mod of Eli - D5]
Data Value: 787
--
Query Sequence: GGCAUAUGGGCAGGAUAUAGGCAGGUAGAGUGAUGUUCUUUCUGAAUAAUUCCAUCCUUCUACCUACUAGAAGGGCCCAUAUGCC
Data Value: 68.7
--
Query Sequence: AGAUGGCAGUGAUGUUGCUGUUGGAGGGAUAAGGAUAUUGGCUAAACAAGAAGGUAUCGGCGGCAUUGAGGAAUGGGAGGCGCCU [theeternabot_exclusion_KL_FMN_A_7]
Data Value: 510
--
Query Sequence: AAUAAUCUAGGUGAUACCAGCUCAACAUGAGUGAUGUUCGUGAGCUAAUGUAGAGUUGAGAGCCCUUGGCAGCACCUAGAUAAUA [KL-SSTheoB7]
Data Value: 943
--
Query Sequence: AAUGUAUACUGAAGGAGCGAGUAGUGGAAACAUAAACUCAAUGCGAGUGAUGUUCGCAGUACUCAGGUAGGUCGCAGUAAUGGUA [Exclusion Arginine B Gf 8]
Data Value: 537
--
Query Sequence: GGUAGCAUGGCGGCCGCCACUCAUGUAGAUACCUACAUAGUAAGCAGUGAUGUUGCUUUGUGGUUGAGGACCGGGCCAUGCUACC
Data Value: 151
--
Query Sequence: AGACUACUGACAGGAUAUAACAUCCUGGUCGUAUACCGAAAGGUAUACGAUUUCCUUCUAGUGAUGUUAGAAGGGUCGGUAGUCA [Omei KL FMN B Exc B v14]
Data Value: 90.7
--
Query Sequence: CAACGAGUGAUGGUCGUUGACGGCCAUCCCGAGGAUAUGGGAUUAUCCAGAAGGCGGGAUCGCCGGGAGUGAUGUUCCCUGAUCA [Same State FMN A GF 14]
Data Value: 168

---

Test system: MS2 coat protein
Experiment: apparent KD of MS2 coat protein; designed switch direction (-1 OFF switch, 1 ON switch): 1; higher = weaker reporter binding
Details: Eterna round: R95; input ligand: FMN 200 uM
Measurement Name: apparent KD of MS2 coat protein (nM)

Query Sequence: CCAUGGUAACAUGAGGAUCACCCAUGUACAAGCUUUUUGCUCGUCUUACCCGGCGCGCCCAUUAUGGGCGCGCCGGG [Nishu_Seq3] (puzzle: Sensor for hsa-mir-208a version 2)
Measurement Name: apparent KD of MS2 coat protein
Data Value: 41.1
--
Query Sequence: CGUAGGUAGCUGGAGGAUAUUCGAGUGGUAACAUGAGGAUCACCCAUGUGGUGAGAGGAACAUGAGGAGAAGGCUAGCUGCCUGC [JL-ss2-3.15 JL mod] (puzzle: Same State 2)
Measurement Name: apparent KD of MS2 coat protein
Data Value: 118
--
Query Sequence: GAAAGAGGAAGCGAGGAUAUCGUGAAGAGUACAUGAGGAUCACCCAUGUUGUAGGUAAAGGUAGGCGAGAAGGCGCAGGAGAAGA [JR_SS2_Sub0102] (puzzle: Same State 2)
Measurement Name: apparent KD of MS2 coat protein
Data Value: 23.9
--
Query Sequence: AGUCCUGAAAAGAAAAUAAUAAGUGAUGUACAUGAGGAUCACCCAUGUCAUGUACAAGUUCUAUGCUCGUCAUAUAA [Sensorship 24 - Jieux - Sensor for hsa-mir-208a] (puzzle: Sensor for hsa-mir-208a)
Measurement Name: apparent KD of MS2 coat protein
Data Value: 106
--
Query Sequence: UCGGGCUCUGCUCGUCUUGAGUUGCUCCCACAUGAGGAUCACCCAUGUAGUGUGCCUAUCAGCGCGCGGGUGACUUU [Riesonso] (puzzle: Sensor for hsa-mir-208a)
Measurement Name: apparent KD of MS2 coat protein
Data Value: 328

Origin of values: the supplement of paper PMC9170038
